Recorded IC50 values for a group of compounds are listed next.
- measured-on: UniProtKB O60502
- Sequence (O60502 1-916): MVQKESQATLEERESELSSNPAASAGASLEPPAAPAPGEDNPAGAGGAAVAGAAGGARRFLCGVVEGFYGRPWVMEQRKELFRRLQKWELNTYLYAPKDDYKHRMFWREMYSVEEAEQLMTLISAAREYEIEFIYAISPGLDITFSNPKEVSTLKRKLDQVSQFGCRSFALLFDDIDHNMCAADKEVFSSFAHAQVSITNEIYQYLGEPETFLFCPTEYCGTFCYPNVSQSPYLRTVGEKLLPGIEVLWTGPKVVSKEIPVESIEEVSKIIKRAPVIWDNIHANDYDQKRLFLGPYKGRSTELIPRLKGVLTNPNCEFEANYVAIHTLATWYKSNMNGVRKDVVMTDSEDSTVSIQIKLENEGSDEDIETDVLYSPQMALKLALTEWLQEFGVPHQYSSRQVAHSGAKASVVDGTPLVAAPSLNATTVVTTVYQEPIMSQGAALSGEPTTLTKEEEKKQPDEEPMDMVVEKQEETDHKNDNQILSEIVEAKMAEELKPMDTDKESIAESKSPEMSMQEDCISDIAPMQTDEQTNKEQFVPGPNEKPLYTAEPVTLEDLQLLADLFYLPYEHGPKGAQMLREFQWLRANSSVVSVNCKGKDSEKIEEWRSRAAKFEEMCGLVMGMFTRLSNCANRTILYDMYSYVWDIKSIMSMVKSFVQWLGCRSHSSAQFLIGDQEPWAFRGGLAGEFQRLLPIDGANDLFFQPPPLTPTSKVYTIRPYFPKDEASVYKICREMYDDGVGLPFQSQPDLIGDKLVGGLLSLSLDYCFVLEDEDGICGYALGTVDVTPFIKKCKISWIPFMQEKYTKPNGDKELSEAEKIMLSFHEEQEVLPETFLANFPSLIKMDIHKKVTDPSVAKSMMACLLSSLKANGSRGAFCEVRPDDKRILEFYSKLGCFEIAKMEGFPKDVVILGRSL

Specify reported IC50 for the compound shown: c1cc(N2CCOCC2)ccc1CN1CCCC1c1ccc2c(c1)OCC2 (racemic)
200 to 1000 nM

Respond only with IC50 recorded for Cc1cc(CN2CCCC2c2ccc3c(c2)OCCO3)ccc1-c1ccncc1 (racemic)
1000 to 10000 nM

Consider the compound CS(=O)(=O)c1ccc(CN2CCCC2c2ccc3c(c2)OCCO3)cc1 (racemic) and give its recorded IC50.
200 to 1000 nM

Report IC50, nothing else, for this compound: c1cc(-c2ccc(CN3CCCC3c3ccc4c(c3)OCCO4)cc2)ccn1 (racemic)
200 to 1000 nM

* * *

Recorded pIC50 for the following compounds
- measured-on: Human O-GlcNAcase (His-Tagged hOGA) (Homo sapiens)
- Sequence (O60502 1-916): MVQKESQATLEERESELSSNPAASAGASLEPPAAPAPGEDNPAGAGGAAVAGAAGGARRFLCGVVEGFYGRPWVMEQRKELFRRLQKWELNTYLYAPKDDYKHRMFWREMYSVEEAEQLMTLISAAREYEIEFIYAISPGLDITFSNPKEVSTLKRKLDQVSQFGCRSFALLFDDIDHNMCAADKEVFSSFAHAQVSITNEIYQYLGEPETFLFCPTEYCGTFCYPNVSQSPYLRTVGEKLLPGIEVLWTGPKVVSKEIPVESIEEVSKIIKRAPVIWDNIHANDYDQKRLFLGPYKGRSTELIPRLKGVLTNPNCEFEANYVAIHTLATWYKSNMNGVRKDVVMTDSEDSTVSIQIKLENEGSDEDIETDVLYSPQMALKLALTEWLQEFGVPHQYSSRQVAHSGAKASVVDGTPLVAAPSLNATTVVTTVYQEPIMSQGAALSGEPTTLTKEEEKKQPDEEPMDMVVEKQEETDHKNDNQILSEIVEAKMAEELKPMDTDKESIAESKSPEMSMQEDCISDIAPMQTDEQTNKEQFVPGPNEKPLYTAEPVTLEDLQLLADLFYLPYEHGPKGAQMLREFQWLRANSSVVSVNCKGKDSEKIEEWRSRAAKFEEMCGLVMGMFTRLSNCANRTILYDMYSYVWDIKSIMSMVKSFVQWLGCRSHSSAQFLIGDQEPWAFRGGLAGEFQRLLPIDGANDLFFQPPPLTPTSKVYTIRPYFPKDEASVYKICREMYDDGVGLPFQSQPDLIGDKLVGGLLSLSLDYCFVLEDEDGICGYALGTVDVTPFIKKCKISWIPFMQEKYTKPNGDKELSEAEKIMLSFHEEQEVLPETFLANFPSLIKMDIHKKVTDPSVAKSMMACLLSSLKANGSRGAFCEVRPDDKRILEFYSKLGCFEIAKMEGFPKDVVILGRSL
pIC50: −log10 of the molar value.

Cc1cc(C(=O)Nc2ccc(CN3CCCC3c3ccc4c(c3)OCCO4)cc2)cc(C)n1 (racemic) | 6.00 to 6.70
CS(=O)(=O)c1ccc(CN2CCCC2c2ccc3c(c2)OCC3)cc1 (racemic) | 6.00 to 6.70
Cn1cc(-c2ccc(CN3CCCC3c3ccc4c(c3)OCO4)cc2)cn1 (racemic) | 6.00 to 6.70
O=c1[nH]nc(-c2ccc(CN3CCCC3c3ccc4c(c3)OCCO4)cc2)o1 (racemic) | 6.00 to 6.70
Cn1cc(-c2ccc(CN3CCCC3c3ccc4c(c3)OCCO4)nc2)cn1 (single isomer, unassigned) [Example 145] | 6.00 to 6.70

Supply reported pIC50 belonging to this compound: Cn1cc(-c2ccc(CN3CCCC3c3ccc4c(c3)OCCO4)cn2)cn1 (racemic) [Example 5]
6.70 to 7.30

Tell us which pIC50 value is on record for Clc1cc(-c2ccccn2)ccc1CN1CCCC1c1ccc2c(c1)OCCO2 (racemic)
5.00 to 6.00

Give pIC50 for Cc1cc(-c2cccnc2C)ccc1CN1CCCC1c1ccc2c(c1)OCCO2 (racemic)
6.00 to 6.70
